# Test system: Fusarium graminearum
# procedure_details: Fungicidal activity against Fusarium graminearum assessed as mycelial growth inhibition in potato dextrose agar at 24 +/- 0.5 degC
# Type: functional, organism-based
measurement_name: EC50 (µg/mL)
// units = µg/mL; emit number, no label

Record request: EC50 value, item O=C1CCCCCCCCCCC1S(=O)(=O)Nc1ccc(Cl)cc1 (centres undefined)
30

Record request: EC50 value, item `COC(=O)Nc1nc2ccccc2[nH]1`
1.95

Record request: EC50 value, item O=C(Nc1cc(Cl)ccc1Cl)NS(=O)(=O)C1CCCCCCCCCCC1=O (centres undefined)
31.5

Record request: EC50 value, item Cc1ccc(NC(=O)NS(=O)(=O)C2CCCCCCCCCCC2=O)cc1C (centres undefined)
39

###

So I've got a bunch of molecules here, and I need their EC50 values.
# Tested on: Fusarium oxysporum f. sp. vasinfectum
# procedure_details: Fungicidal activity against Fusarium oxysporum f. sp. vasinfectum assessed as mycelial growth inhibition in potato dextrose agar at 24 +/- 0.5 degC
# Assay type: functional, organism-based
// units = µg/mL; emit number, no label

Record request: EC50 value, item O=C1CCCCCCCCCCC1S(=O)(=O)Nc1ccc(Cl)cc1 (centres undefined)
24.6

Record request: EC50 value, item Cc1ccc(NC(=O)NS(=O)(=O)C2CCCCCCCCCCC2=O)cc1C (centres undefined)
24

Record request: EC50 value, item O=C(Nc1cc(Cl)ccc1Cl)NS(=O)(=O)C1CCCCCCCCCCC1=O (centres undefined)
19.5

Record request: EC50 value, item COC(=O)Nc1nc2ccccc2[nH]1 [CARBENDAZIM]
0.54
